Data origin, for the record: patent US20190367631A1

- STUDY TARGET: T1, full length human MSR1 with a C-terminal Myc tag, on HEK293.Myc.hMSR1 cells (human, UniProt P21757 1-451); further: test concentration or dose not given here
- T1 sequence (looked up): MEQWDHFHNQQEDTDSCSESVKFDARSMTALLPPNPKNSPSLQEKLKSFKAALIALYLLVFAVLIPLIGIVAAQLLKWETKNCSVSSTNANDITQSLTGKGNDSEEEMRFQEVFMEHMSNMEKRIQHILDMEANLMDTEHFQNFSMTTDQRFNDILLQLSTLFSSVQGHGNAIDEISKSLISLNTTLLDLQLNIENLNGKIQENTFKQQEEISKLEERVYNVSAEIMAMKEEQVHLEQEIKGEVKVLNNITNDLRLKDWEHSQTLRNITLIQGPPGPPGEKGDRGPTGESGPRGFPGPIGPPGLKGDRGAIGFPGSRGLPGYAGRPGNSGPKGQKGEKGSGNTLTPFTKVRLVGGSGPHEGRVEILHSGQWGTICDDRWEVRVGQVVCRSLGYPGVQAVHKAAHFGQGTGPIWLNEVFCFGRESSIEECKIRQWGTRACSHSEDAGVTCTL
- PROTOCOL NOTES: cell-based or functional assay

BINDER	UNIT DESCRIPTOR	% Inhibition of Dil-Oxidized LDL uptake
H2aM25695N (antibody, mouse IgG2a, V domains shown, mouse IgG2a Fc) VH: QVQLQESGPGLVKPSETLSLTCTVTGGSISRNYWSWIRQPPGKGLEWIGYIYYSGSINYNPSLKSRVTISVDMSKNQFSLKLNSVTAADTAVYYCARDRWNWKYGMDVWGQGTTVIVSS VL: EIVLTQSPGTLSLSPGERATLSCRASQTVRNSYLAWYHQKPGQAPRLLIYGASSRATGIPDRFSGSGSGTDFTLTISRLEPEDFAVYYCQQYGSSYWTFGQGTKMEIKR	%	69
